Measured values drawn from the supplement of paper PMC6897291 for this set.

Listed below: growth inhibition by drug alone values for each entry.
system: U-2932; test: growth inhibition by drug alone (1 - RLU/untreated control) (fraction); higher = stronger inhibition; conditions: 1000 nM; time (day): 5; 177Lu-lilotomab satetraxetan 0 ug/ml
ENDPOINT_LABEL: growth inhibition by drug alone

MOLECULE: COc1ccc(-c2oc3cc(OC)ccc3c2C(=O)c2ccc(C#N)cc2)cc1
NUMBER: -0.052
--
MOLECULE: Cc1ccc(Nc2nccc(N(C)c3ccc4c(C)n(C)nc4c3)n2)cc1S(N)(=O)=O
NUMBER: 0.0564
--
MOLECULE: CCN(CC)C(=S)SSC(=S)N(CC)CC
NUMBER: 0.981
--
MOLECULE: C=C1/C(=C\C=C2/CCC[C@]3(C)[C@@H]([C@H](C)/C=C/[C@H](C)C(C)C)CC[C@@H]23)C[C@@H](O)C[C@@H]1O
NUMBER: 0.147
--
MOLECULE: CC(C=CC(=O)NO)=CC(C)C(=O)c1ccc(N(C)C)cc1 (stereo not given)
NUMBER: 0.983

---

test system: RIVA; assay: growth inhibition by drug plus 177Lu-lilotomab satetraxetan (1 - RLU/untreated control) (fraction); higher = stronger inhibition; conditions: 10 nM; time (day): 5; 177Lu-lilotomab satetraxetan 0.5 ug/ml
ENDPOINT_LABEL: growth inhibition by drug plus 177Lu-lilotomab satetraxetan

MOLECULE: Cn1cc(C2=C(c3ccc(Cl)cc3Cl)C(=O)NC2=O)c2ccccc21
SYSTEM: RIVA
NUMBER: 0.546
--
MOLECULE: COc1cc2nccc(Oc3ccc(NC(=O)Nc4cc(C)on4)c(Cl)c3)c2cc1OC
SYSTEM: RIVA
NUMBER: 0.57
--
MOLECULE: CN(C)Cc1ccc(-c2nc3cccc4c3n2CCNC4=O)cc1
SYSTEM: RIVA
NUMBER: 0.638
--
MOLECULE: Cc1cn(-c2cc(NC(=O)c3ccc(C)c(Nc4nccc(-c5cccnc5)n4)c3)cc(C(F)(F)F)c2)cn1
SYSTEM: RIVA
NUMBER: 0.522
--
MOLECULE: CS(=O)(=O)N1CCc2c(-c3cnc(N)nc3)nc(N3CCOCC3)nc21
SYSTEM: RIVA
NUMBER: 0.537
--
MOLECULE: C[S+]([O-])c1ccc(-c2nc(-c3ccc(F)cc3)c(-c3ccncc3)[nH]2)cc1 (centres undefined)
SYSTEM: RIVA
NUMBER: 0.684
--
MOLECULE: COc1cc(C(=O)NC(=S)Nc2cccc(NC(=O)c3ccccc3)c2)cc(OC)c1OC
SYSTEM: RIVA
NUMBER: 0.58
--
MOLECULE: C[C@]1(O)C[C@@H](c2nc(-c3ccc4ccc(-c5ccccc5)nc4c3)c3c(N)nccn32)C1
SYSTEM: RIVA
NUMBER: 0.495
--
MOLECULE: CN(C)c1nc(N(C)C)nc(N(C)C)n1
SYSTEM: RIVA
NUMBER: 0.481

---

test system: U-2932; test: growth inhibition by drug plus 177Lu-lilotomab satetraxetan (1 - RLU/untreated control) (fraction); higher = stronger inhibition; settings: 1000 nM; time (day): 4; 177Lu-lilotomab satetraxetan 1 ug/ml
Where a name gives a salt, the structure may show the parent alone.
ENDPOINT_LABEL: growth inhibition by drug plus 177Lu-lilotomab satetraxetan

MOLECULE: Clc1ccc(Nc2nnc(Cc3ccncc3)c3ccccc23)cc1 [Vatalanib dihydrochloride (PTK787)]
NUMBER: 0.0231
//
MOLECULE: CNC(=O)c1cc(Oc2ccc(NC(=O)Nc3ccc(Cl)c(C(F)(F)F)c3)c(F)c2)ccn1
NUMBER: 0.291
//
MOLECULE: CNNCc1ccc(C(=O)NC(C)C)cc1 [Procarbazine hydrochloride (Matulane)]
NUMBER: 0.108
//
MOLECULE: COc1ccc(/C=C\c2cc(OC)c(OC)c(OC)c2)cc1O
NUMBER: 0.979
//
MOLECULE: Nc1cc(C(F)(F)F)c(-c2cc(N3CCOCC3)nc(N3CCOCC3)n2)cn1
NUMBER: 0.421
//
MOLECULE: O=C(Cc1ccc(-c2ccc(OCCN3CCOCC3)cc2)cn1)NCc1ccccc1
NUMBER: 0.977
//
MOLECULE: CC(C)CC(=O)Nc1n[nH]c2c1CN(C(=O)C1CCN(C)CC1)C2(C)C
NUMBER: 0.855
//
MOLECULE: O=C(O)C(Cc1c[nH]c2ccccc12)N1C(=O)c2ccccc2C1=O (centres undefined)
NUMBER: -0.0639
//
MOLECULE: CN(NC(=O)CC(=O)NN(C)C(=S)c1ccccc1)C(=S)c1ccccc1
NUMBER: 0.982
//
MOLECULE: NC(=O)Nc1sc(-c2ccc(F)cc2)cc1C(N)=O
NUMBER: 0.356
//
MOLECULE: O=C(O)Cc1cccc(OCCCN(Cc2cccc(C(F)(F)F)c2Cl)CC(c2ccccc2)c2ccccc2)c1
NUMBER: 0.224
//
MOLECULE: O=C(Nc1cccc(Cl)c1)Nc1ncc(CCNc2ncnc3ccsc23)s1
NUMBER: 0.317
//
MOLECULE: Cc1ccnc(NS(=O)(=O)c2ccc(NC(=O)Nc3ccc(S(=O)(=O)Nc4nccc(C)n4)cc3)cc2)n1
NUMBER: 0.13
//
MOLECULE: CCC(CC)CC1(C(=O)Nc2ccccc2SC(=O)C(C)C)CCCCC1
NUMBER: -0.00533
//
MOLECULE: COc1cccc2c1C(=O)c1c(O)c3c(c(O)c1C2=O)C[C@@](O)(C(C)=O)C[C@@H]3O[C@H]1C[C@H](N)[C@H](O)[C@H](C)O1 [Daunorubicin HCl (Daunomycin HCl)]
NUMBER: 0.982
//
MOLECULE: CC(C)n1nc(-c2ccc3oc(N)nc3c2)c2c(N)ncnc21
NUMBER: 0.905
//
MOLECULE: CCc1c2c(nc3ccc(OC(=O)N4CCC(N5CCCCC5)CC4)cc13)-c1cc3c(c(=O)n1C2)COC(=O)[C@]3(O)CC [Irinotecan HCl Trihydrate (Campto)]
NUMBER: 0.928
//
MOLECULE: O=C(/C=C/c1cccnc1)NCCCCC1CCN(C(=O)c2ccccc2)CC1
NUMBER: 0.985
//
MOLECULE: CCOC(=O)[C@@H](C)Oc1cccc2c(=O)n(CC(=O)Nc3ccc4c(c3)OCCO4)ccc12
NUMBER: -0.0327
//
MOLECULE: CCN(CC)CCNC(=O)c1c(C)[nH]c(/C=C2\C(=O)Nc3ccc(F)cc32)c1C [Sunitinib Malate (Sutent)]
NUMBER: -0.017
//
MOLECULE: COc1cccc2c1C(=O)c1c(O)c3c(c(O)c1C2=O)C[C@@](O)(C(=O)CO)C[C@@H]3O[C@H]1C[C@H](N)[C@@H](O)[C@H](C)O1 [Epirubicin Hydrochloride]
NUMBER: 0.977
//
MOLECULE: CC1(C)CNc2cc(NC(=O)c3cccnc3NCc3ccncc3)ccc21 [Motesanib Diphosphate]
NUMBER: -0.033
//
MOLECULE: CN(C)Cc1ccc(-c2nc3cccc4c3n2CCNC4=O)cc1
NUMBER: 0.127
//
MOLECULE: Nc1nc(Nc2ccc(S(N)(=O)=O)cc2)nn1C(=O)c1c(F)cccc1F
NUMBER: 0.614
//
MOLECULE: C[C@]1(O)C[C@@H](c2nc(-c3ccc4ccc(-c5ccccc5)nc4c3)c3c(N)nccn32)C1
NUMBER: -0.0306
//
MOLECULE: CC(=O)Nc1nc(C)c(-c2ccc(Cl)c(S(=O)(=O)NCCO)c2)s1
NUMBER: 0.467
//
MOLECULE: CN[C@@H](C)C(=O)N[C@H]1CN(C(=O)CC(C)C)CC[C@H]2CC[C@@H](C(=O)NC(c3ccccc3)c3ccccc3)N2C1=O
NUMBER: 0.0475
//
MOLECULE: CS(=O)(=O)c1ccc(C(=O)Nc2ccc(Cl)c(-c3ccccn3)c2)c(Cl)c1
NUMBER: 0.138
//
MOLECULE: COC(=O)Nc1nc2cc(C(=O)c3cccs3)ccc2[nH]1
NUMBER: 0.978
//
MOLECULE: CCCCCCCCc1ccc(CCC(N)(CO)CO)cc1
NUMBER: 0.0614
//
MOLECULE: CC(C)c1ccc(Cn2ccc3c4c(N)nc(NC5CC5)nc4ccc32)cc1
NUMBER: 0.983
//
MOLECULE: C[C@H](NC(=O)Cc1cc(F)cc(F)c1)C(=O)N[C@H](C(=O)OC(C)(C)C)c1ccccc1
NUMBER: 0.0181
//
MOLECULE: Cn1cnc2c(F)c(Nc3ccc(Br)cc3Cl)c(C(=O)NOCCO)cc21 [AZD6244 (Selumetinib)]
NUMBER: 0.192
//
MOLECULE: OCCn1cc(-c2cnc3nnn(Cc4ccc5ncccc5c4)c3n2)cn1
NUMBER: 0.08

---

tested on: RIVA; assay: growth inhibition by drug alone (1 - RLU/untreated control) (fraction); higher = stronger inhibition; settings: 10 nM; time (day): 3; 177Lu-lilotomab satetraxetan 0 ug/ml
Structures can show the parent of a compound that is named as a salt.
Listed below: growth inhibition by drug alone values for each entry.
ENDPOINT_LABEL: growth inhibition by drug alone

MOLECULE: Cc1cn(-c2cc(NC(=O)c3ccc(C)c(Nc4nccc(-c5cccnc5)n4)c3)cc(C(F)(F)F)c2)cn1
ENDPOINT_LABEL: growth inhibition by drug alone
RESULT: -0.0335

MOLECULE: CCN[C@H]1C[C@H](C)S(=O)(=O)c2sc(S(N)(=O)=O)cc21 [Dorzolamide HCL]
ENDPOINT_LABEL: growth inhibition by drug alone
RESULT: -0.103

MOLECULE: CC1(C)CNc2cc(NC(=O)c3cccnc3NCc3ccncc3)ccc21 [Motesanib Diphosphate]
ENDPOINT_LABEL: growth inhibition by drug alone
RESULT: -0.0638

MOLECULE: CC(=O)O[C@]1(C(C)=O)CC[C@H]2[C@@H]3C[C@H](C)C4=CC(=O)CC[C@]4(C)[C@H]3CC[C@@]21C [Medroxyprogesterone acetate]
ENDPOINT_LABEL: growth inhibition by drug alone
RESULT: -0.0698

MOLECULE: Nc1ncn([C@H]2C[C@H](O)[C@@H](CO)O2)c(=O)n1
ENDPOINT_LABEL: growth inhibition by drug alone
RESULT: 0.201

MOLECULE: CCOc1ccc(Cc2cc([C@@H]3O[C@H](CO)[C@@H](O)[C@H](O)[C@H]3O)ccc2Cl)cc1
ENDPOINT_LABEL: growth inhibition by drug alone
RESULT: 0.0261

MOLECULE: COc1cc2nc(N3CCCN(C)CC3)nc(NC3CCN(Cc4ccccc4)CC3)c2cc1OC
ENDPOINT_LABEL: growth inhibition by drug alone
RESULT: 0.0768

MOLECULE: CC[C@]1(O)C[C@@H]2CN(CCc3c([nH]c4ccccc34)[C@@](C(=O)OC)(c3cc4c(cc3OC)N(C)[C@H]3[C@@](O)(C(=O)OC)[C@H](OC(C)=O)[C@]5(CC)C=CCN6CC[C@]43[C@@H]65)C2)C1
ENDPOINT_LABEL: growth inhibition by drug alone
RESULT: 0.0866

MOLECULE: CC(=O)[C@]1(O)Cc2c(O)c3c(c(O)c2[C@@H](O[C@H]2C[C@H](N)[C@H](O)[C@H](C)O2)C1)C(=O)c1ccccc1C3=O [Idarubicin HCl]
ENDPOINT_LABEL: growth inhibition by drug alone
RESULT: 0.685

MOLECULE: C=CCn1c(=O)c2cnc(Nc3ccc(N4CCN(C)CC4)cc3)nc2n1-c1cccc(C(C)(C)O)n1
ENDPOINT_LABEL: growth inhibition by drug alone
RESULT: -0.0778

MOLECULE: CN1CCN(c2nc(C3=C(c4c[nH]c5ccccc45)C(=O)NC3=O)c3ccccc3n2)CC1
ENDPOINT_LABEL: growth inhibition by drug alone
RESULT: 0.214

MOLECULE: CCNC(=O)c1noc(-c2cc(C(C)C)c(O)cc2O)c1-c1ccc(CN2CCOCC2)cc1
ENDPOINT_LABEL: growth inhibition by drug alone
RESULT: 0.0724

MOLECULE: COc1cc(N2CCC(N3CCN(C)CC3)CC2)ccc1Nc1ncc(Cl)c(Nc2ccccc2S(=O)(=O)C(C)C)n1
ENDPOINT_LABEL: growth inhibition by drug alone
RESULT: -0.00616

MOLECULE: COc1cc2nccc(Oc3ccc(NC(=O)Nc4cc(C)on4)c(Cl)c3)c2cc1OC
ENDPOINT_LABEL: growth inhibition by drug alone
RESULT: 0.0535

MOLECULE: C[C@@H](N)[C@H]1CC[C@H](C(=O)Nc2ccncc2)CC1
ENDPOINT_LABEL: growth inhibition by drug alone
RESULT: -0.062
